biological target: T1, cynomolgus monkey BCMA (cynomolgus monkey, UniProt A0A2K5UD97 1-53); test: SPR, IgG immobilised, 37 C
T1 construct: Soluble analyte in SPR; construct not described; also called cyBCMA; Cyno BCMA
T1 sequence (A0A2K5UD97 entry or part of it): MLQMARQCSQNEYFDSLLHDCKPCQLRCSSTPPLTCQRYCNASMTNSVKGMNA
readout: T ½ (min)
Your answer is read as min, so omit the unit and give the number.

Worked cases, answers included:
binder	readout	value_unit	assay_value
L3.PY/L1.PS/H3.TAQ (antibody, V domains shown, IgG) VH: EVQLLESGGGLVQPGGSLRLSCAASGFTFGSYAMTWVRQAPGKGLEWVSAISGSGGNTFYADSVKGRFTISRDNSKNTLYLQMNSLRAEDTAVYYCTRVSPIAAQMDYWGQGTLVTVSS VL: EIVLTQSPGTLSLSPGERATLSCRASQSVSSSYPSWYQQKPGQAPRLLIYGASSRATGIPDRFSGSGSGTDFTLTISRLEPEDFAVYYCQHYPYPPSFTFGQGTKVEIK	T ½	min	2.09
L3.PY/H2.HA (antibody, V domains shown, IgG) VH: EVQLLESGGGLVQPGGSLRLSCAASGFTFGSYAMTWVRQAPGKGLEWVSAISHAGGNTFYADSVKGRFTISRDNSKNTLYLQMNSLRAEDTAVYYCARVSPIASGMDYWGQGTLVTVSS VL: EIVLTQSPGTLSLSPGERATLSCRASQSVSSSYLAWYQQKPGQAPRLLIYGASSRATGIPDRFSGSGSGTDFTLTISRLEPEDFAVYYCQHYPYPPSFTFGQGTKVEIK	T ½	min	1.53
L3.PY/L1.AH/H2.HA (antibody, V domains shown, IgG) VH: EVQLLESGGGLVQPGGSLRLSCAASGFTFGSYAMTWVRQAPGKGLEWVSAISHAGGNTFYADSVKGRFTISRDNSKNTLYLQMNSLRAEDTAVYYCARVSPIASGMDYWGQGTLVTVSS VL: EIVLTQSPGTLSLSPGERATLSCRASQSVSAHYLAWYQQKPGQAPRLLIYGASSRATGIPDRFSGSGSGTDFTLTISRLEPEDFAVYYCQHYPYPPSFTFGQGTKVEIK	T ½	min	2.63

Looking for the measured T ½ of L3.PY/L1.PS/H2.QR (antibody, V domains shown, IgG) VH: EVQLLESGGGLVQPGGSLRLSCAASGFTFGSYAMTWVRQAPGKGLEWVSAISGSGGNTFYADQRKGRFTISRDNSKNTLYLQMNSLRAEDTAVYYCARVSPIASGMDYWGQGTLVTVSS VL: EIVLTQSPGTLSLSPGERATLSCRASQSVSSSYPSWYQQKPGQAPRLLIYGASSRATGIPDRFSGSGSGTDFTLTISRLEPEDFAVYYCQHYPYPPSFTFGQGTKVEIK , can you help?
17.2

Repeat with L3.PY/L1.PS/H3.AE (antibody, V domains shown, IgG) VH: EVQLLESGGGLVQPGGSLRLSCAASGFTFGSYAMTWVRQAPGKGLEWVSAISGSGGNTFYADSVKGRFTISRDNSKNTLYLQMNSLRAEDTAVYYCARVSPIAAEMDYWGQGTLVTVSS VL: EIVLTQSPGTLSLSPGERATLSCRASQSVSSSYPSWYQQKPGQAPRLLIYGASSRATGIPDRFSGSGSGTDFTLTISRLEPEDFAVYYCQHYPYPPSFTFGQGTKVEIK
2.8

Origin of values: patent US20160297884A1
